Tested on: COLO 205 colon
Experiment: NCI tumour cell line growth inhibition, 48 h
Measured TGI, listed per entry for reference.

Sample records with TGI:
molecule="C[N+](C)(C)CC(CC(=O)[O-])C1CC1 (stereo not given)" reportedmeasurement="> 100 µM"
molecule="CC(=O)OCC1OC(SC2=NC(=O)/C(=C/c3ccccc3)S2)C(OC(C)=O)C(OC(C)=O)C1OC(C)=O (stereo not given)" reportedmeasurement="> 100 µM"
molecule=NCCS(=O)(=O)O reportedmeasurement="> 100 µM"
molecule=Fc1ccc([C@@H]2CCNC[C@H]2COc2ccc3c(c2)OCO3)cc1 reportedmeasurement="3.69 µM"
molecule=O=C(/C=C/c1ccccc1O)c1cccc2ccccc12 reportedmeasurement="> 68.6 µM"

Query: Name the recorded TGI for `COc1ccc(/C=N\NC(=O)c2ccc3nc(-c4ccc(Cl)cc4)[nH]c3c2)cc1` .
Reply: 5.43 µM

Query: What value of TGI has been recorded for this entry: `N#Cc1c(N2CCCC2)nsc1Nc1ccc(F)cc1`
Reply: > 100 µM

Query: What does the record list as TGI for `O=C(Cn1c(C(=O)c2ccc(Cl)cc2)nc(-c2ccccc2)c1-c1ccccc1)c1ccc(Cl)cc1` ?
Reply: > 100 µM

Query: Form field: reported TGI of CC(=O)O[C@H]1C[C@](C)(O)[C@@]23CC([C@@H](OC(=O)C(C)(C)O)[C@@H](OC(C)=O)C2(COC(=O)c2ccccc2)[C@H]1OC(C)=O)C(C)(C)O3 (stereo not given in full)
Reply: > 100 µM

Query: # lookup: TGI of `CC(C)C[CH2][Ge]([CH2]CC(C)C)([CH2]CC(C)C)[CH2]CC(C)C`
Reply: > 100 µM
